Where these numbers come from: patent US20190031613A1

# method summary: in vivo pharmacokinetics in mice (plasma, LC/MS-MS)
# condition info: read-out: Cmax [μmol/L]; oral dose 3.0 mg/kg, 0.5% aqueous HEC, parent in plasma
measured property: Cmax
Could you write the number and then its unit?

// COc1cc2[nH]c(C)c(-c3ccc(Oc4ccc(OC(F)(F)F)cc4)cc3F)c(=O)c2cc1Cl [1b, reference compound] : Cmax value = 0.31 µmol/L

====

# method summary: aqueous solubility at pH 7.4
# condition info: aqueous medium at pH 7.4 (buffer not named), pH 7.4, aqueous buffer
Field: solubility. Provide a value for each of the molecules that follow.
Give just the number in µM; leave the unit off.

Lab note: COc1cc2[nH]c(C)c(-c3ccccc3C)c(=O)c2cc1Cl [1c, reference compound] gave solubility of 8.7

The recorded solubility for entry `COc1cc2nc(C)c(-c3ccccc3C)c(OC(=O)N3CCCC3)c2cc1Cl` equals 2.9

====

# method summary: in vivo pharmacokinetics in mice (plasma, LC/MS-MS)
# condition info: read-out: Cmax [μmol/L]; oral dose 100 mg/kg, 0.5% aqueous HEC
measured property: Cmax

Cmax measured on COc1cc2[nH]c(C)c(-c3ccc(Oc4ccc(OC(F)(F)F)cc4)cc3F)c(=O)c2cc1Cl [1b, reference compound] = 0.46 µmol/L

====

# method summary: aqueous solubility at pH 2.5, UV-based assay
# Format: physicochemical
# condition info: aqueous solution at pH 2.5, pH 2.5, aqueous buffer; read-out: aqueous solubility at acidic pH
measured property: solubility

Value of solubility reported for the molecule `CNCCCOC(=O)OCOc1c(-c2ccccc2C)c(C)nc2cc(OC)c(Cl)cc12.Cl` is > 100 µM

====

# Tested on: P. berghei-GFP parasites
# method summary: in vivo efficacy, modified Thompson test
# Design: species or system mice
# condition info: 10 mg/kg PO, three daily doses days 3-5 PI, 0.5% aqueous HEC
measured property: Suppression [%] day 6 PI

Bench note, P. berghei-GFP parasites: CCN(CC)Cc1cc(Nc2ccnc3cc(Cl)ccc23)ccc1O [ADQ, reference compound] , Suppression [%] day 6 PI reads >99%

For the compound `CNCCOC(=O)OCOc1c(-c2ccc(C(F)(F)F)cc2)c(C)nc2cc(OC)c(Cl)cc12.Cl` , the measured Suppression [%] day 6 PI on P. berghei-GFP parasites was 75%

// Suppression [%] day 6 PI (P. berghei-GFP parasites) for `CNCCCOC(=O)OCOc1c(-c2ccccc2C)c(C)nc2cc(OC)c(Cl)cc12.Cl` = 52%

# lookup: COc1cc2[nH]c(C)c(-c3ccc(C(F)(F)F)cc3)c(=O)c2cc1Cl [1d, reference compound] on P. berghei-GFP parasites, Suppression [%] day 6 PI = 11%

====

# method summary: aqueous solubility at pH 7.4
# condition info: pH 7.4, aqueous buffer
measured property: solubility

Noted for `CCN(CC)C(=O)Oc1c(-c2ccccc2C)c(C)nc2cc(OC)c(Cl)cc12` : its solubility reads < 1 µM

====

# method summary: in vivo pharmacokinetics in mice (plasma, LC/MS-MS)
# condition info: single oral 3 mg/kg, 0.5% aqueous HEC
# Experimental: Plasma exposure of prodrug 6e and parent compound 1b was determined following a single oral administration at 10 mg/kg and 3 mg/kg doses in 0.5% aqueous HEC (FIG. 5b). […] Compound concentrations were quantitated in plasma samples by LC/MS-MS using an Agilent triple quadrupole instrument. […] Sample concentrations were determined by comparison to calibration standards prepared in blank plasma and assayed using the same conditions. […]
measured property: Cmax (nM)
Report only the number, with the unit nM understood.

// Cmax lookup, compound = COc1cc2[nH]c(C)c(-c3ccc(Oc4ccc(OC(F)(F)F)cc4)cc3F)c(=O)c2cc1Cl [1b, reference compound] , result: 310
